Tested on: PPARg:RXRa 270nM:90nM, anti-RXR (NR concentration 270 nM, RXRa partner concentration 90 nM)
Test Summary: PBM binding z-score (relative to random genomic background probes); higher = stronger binding; sequences stand for … in GC…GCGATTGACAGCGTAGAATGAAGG
The threshold is inclusive: PBM binding z-score of exactly 1 counts as label 1; values below receive label 0.

{"columns": ["Seq String", "Class Label"],
 "data": [
  ["ACTAGCAGGCCAAGTTTGGGTCAGTCAAACAAAG", "label 0"],
  ["CCTACTGGGCTATTCAGAGGTCATTGATCATATG", "label 1"],
  ["TTACCAAGGTGAGGTGAGGTCGTTGATCCAACTC", "label 1"],
  ["ACACCAAGGTGATCGTGAGGTCGTTGATACTAAC", "label 0"],
  ["TAGCCTAGGTCAGTGGGCCAGTATAGTACGCATC", "label 1"]
]}

Input: Say whether `CCTACTGGTCCATCAGGTCATTGATATCAACGTT` shows PBM binding z-score of 1 or more.
Output: label 1

----------
Test system: PXR homodimer (NR concentration 270 nM)
Test Summary: PBM binding z-score (relative to random genomic background probes); higher = stronger binding; sequences stand for … in GC…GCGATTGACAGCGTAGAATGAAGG
The threshold is inclusive: PBM binding z-score of exactly 0.2 counts as Y; values below receive N.

Illustrative cases are given below, each with its answer.
{"columns": ["Seq String", "Class Label"],
 "data": [
  ["CGTCAATGTTCAAGGTAACGTAACAGAAAGCAGC", "N"],
  ["CCTACTGGGCCATTCCGAGGTCATTGATCATATG", "Y"],
  ["CCTACTGGGCCATCAGGTCAATGATATCAACGTT", "N"],
  ["CTACCAAGGTGAACAAGGTCGTTAATTACTATTC", "Y"],
  ["CCGACTGGGGCACAGGTTACCATACTCAGTACGA", "N"]
]}

Input: Say whether `CAAACTAGGTCACGAAAGGTCAAACTCGAATGAC` shows PBM binding z-score of 0.2 or more.
Output: Y

Input: Say whether `CAAACTAGGTCAAGAGGTCACAGTCCGCTTCCCG` shows PBM binding z-score of 0.2 or more.
Output: Y

Input: Say whether `AGTCAGAGTTCACTAGGTAACGTAAGATTCAGCT` shows PBM binding z-score of 0.2 or more.
Output: Y

Input: Say whether `CGTTACGGGTCACTGACAGGTTATAGCATTTGGA` shows PBM binding z-score of 0.2 or more.
Output: N

Input: Say whether `TCATTTAGGTAAAGGTGAAAGTCGAACGATATGA` shows PBM binding z-score of 0.2 or more.
Output: N

Input: Say whether `ACTATTAGTTGAGAGGAGGGCAACCGATAGGTTG` shows PBM binding z-score of 0.2 or more.
Output: Y

Input: Say whether `TCATATAGGTAAAACGTGAAAGTCGGTGTGGTAA` shows PBM binding z-score of 0.2 or more.
Output: Y

Input: Say whether `AGTCAAAGTTCACTAGGTACCGTAAGATTCAGCT` shows PBM binding z-score of 0.2 or more.
Output: Y

Input: Say whether `CCCAGTTGGTCAGGAGGTCACACACCGGATATGA` shows PBM binding z-score of 0.2 or more.
Output: Y

Input: Say whether `CCTTACGGGTCACTCCACGTTATAGCATCGGAGT` shows PBM binding z-score of 0.2 or more.
Output: N

Input: Say whether `CGTCCAAGGTCAATGCTAGGTCAGTGCAAGCATT` shows PBM binding z-score of 0.2 or more.
Output: Y

Input: Say whether `ACAGACAGGTGATGAAGGTAACTCTGGCTATCAT` shows PBM binding z-score of 0.2 or more.
Output: N

Input: Say whether `GCTAGTTGTTCAGTAAAAGGTCACACACCGGTCG` shows PBM binding z-score of 0.2 or more.
Output: Y

Input: Say whether `GGAACGAGCGCAAGTTGATAGCAGAGTTTGATGG` shows PBM binding z-score of 0.2 or more.
Output: N

Input: Say whether `CCGACTGGAGCAAAGGTTACCATACTCAGTACGA` shows PBM binding z-score of 0.2 or more.
Output: N

Input: Say whether `ACTAGTTGGTCAGCTGAGGTCACCCACAATTCGG` shows PBM binding z-score of 0.2 or more.
Output: Y

Input: Say whether `AATACAGGGTCATCGTAGGCCATAGTACGCACAG` shows PBM binding z-score of 0.2 or more.
Output: Y

Input: Say whether `ACTAGCAGGCCGAGTTTGGGTCACTCAAACAAAG` shows PBM binding z-score of 0.2 or more.
Output: N

Input: Say whether `CAGCCTAGGTCAGGGTCAGTATAGGAGGAACGTT` shows PBM binding z-score of 0.2 or more.
Output: N

Input: Say whether `ATCGAAAGGTCGAAGCTGAGTATACCCACCCGAA` shows PBM binding z-score of 0.2 or more.
Output: N

Input: Say whether `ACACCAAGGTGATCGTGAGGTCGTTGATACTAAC` shows PBM binding z-score of 0.2 or more.
Output: Y

Input: Say whether `ATATGTAGGTTAAGGGACATTCAGGTTGGTTCGC` shows PBM binding z-score of 0.2 or more.
Output: Y
